Please provide measured binding response (% of control) for the entries that follow.
Target: Mitogen-activated protein kinase kinase kinase 2 (Homo sapiens)
Experiment: wildtype MEKK2 PB1-MEK5 interaction enhancers or blockers – biochemical, single concentration, multiplex bead flow cytometry, confirmation (AID 1892)
Conditions: Alexa488-MEK5 binding to MEKK2 WT, at 10 µM, actives lie on both sides
Screen size: about 5,900 compounds; about 140 (2.4%) were called active. The list comes from a sample in which actives are over-represented; it also holds close analogues and randomly drawn compounds.
Give bare numbers, in %.

// worked examples, binding response (% of control) included
COc1ccc(CNC(=O)C2CCN(S(C)(=O)=O)CC2)cc1	103
Cc1ccccc1-c1ccc(Nc2ccc(C(=O)N3CCOCC3)cc2)nn1	103
O=C(CC1SCCNC1=O)Nc1ccc(Cl)c(Cl)c1 (stereo not drawn)	104
Cc1no[n+]([O-])c1COc1ccccc1/C=C1\NC(=S)NC1=O	99
Cc1nn(-c2ccccc2)c(C)c1NC(=O)CCl	95
O=c1c(/C=N/O)coc2ccc(Cl)cc12	100

Give binding response (% of control) for each of the items listed below.
1. COc1ccc(CC(=O)N2N=C(C)CC2(O)C(F)(F)F)cc1 (stereo not drawn)
2. CN(C)CCCNC(=O)/C=C/c1ccc(OCc2c(F)cccc2Cl)cc1

## Result
1. 96
2. 150
